Data provenance is patent US20230263822A1.

test: Hematology assays in cynomolgus monkeys (Example 46); format: in vivo; settings: Day 45
Strand notation (5' to 3'): a small letter for the sugar, then the base; units joined by * are phosphorothioate-linked, units joined directly phosphodiester-linked; [ ] holds rarer units or linkages, { } end groups; capitals alone tell only the bases. e = 2'-O-(2-methoxyethyl) (MOE); [5mC] = 5-methylcytosine; d = 2'-deoxy (DNA)
Mark each entry yes (1) if its monocytes sits below 4%, and no (0) for all others.

substance | class_name
ISIS 445531: 5-8-5 or 6-8-6 MOE microwalk gapmer (Table 44) (antisense eG*eG*e[5mC]*eA*eT*dT*dG*dG*dT*dG*d[5mC]*dA*d[5mC]*eA*eG*eT*eT*eT) | no (0)
ISIS 449711: 3-8-3, 4-8-4, 2-10-2, 3-10-3 or 4-10-4 MOE microwalk gapmer (Table 46) (antisense eA*e[5mC]*dA*dG*dT*dT*dT*d[5mC]*dT*dG*dG*d[5mC]*eA*eG) | no (0)
ISIS 416858: MOE gapmer, nucleobases 1275 to 1318 of SEQ ID NO: 1 (Table 8) (antisense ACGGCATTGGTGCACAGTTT; MOE gapmer, wing and gap sizes not given here) | no (0)
ISIS 449710: 3-8-3, 4-8-4, 2-10-2, 3-10-3 or 4-10-4 MOE microwalk gapmer (Table 46) (antisense e[5mC]*eA*e[5mC]*dA*dG*dT*dT*dT*d[5mC]*dT*dG*dG*d[5mC]*eA*eG*eG) | yes (1)
ISIS 449709: 3-8-3, 4-8-4, 2-10-2, 3-10-3 or 4-10-4 MOE microwalk gapmer (Table 46) (antisense eG*e[5mC]*eA*e[5mC]*dA*dG*dT*dT*dT*d[5mC]*dT*dG*dG*d[5mC]*eA*eG*eG*e[5mC]) | yes (1)
ISIS 449708: 3-8-3, 4-8-4, 2-10-2, 3-10-3 or 4-10-4 MOE microwalk gapmer (Table 46) (antisense eA*e[5mC]*eA*dG*dT*dT*dT*d[5mC]*dT*dG*dG*e[5mC]*eA*eG) | no (0)

----------
test: Hematology assays in cynomolgus monkeys (Example 46); type: in vivo; conditions: Day-14
Strand notation (5' to 3'): a small letter for the sugar, then the base; units joined by * are phosphorothioate-linked, units joined directly phosphodiester-linked; [ ] holds rarer units or linkages, { } end groups; capitals alone tell only the bases. e = 2'-O-(2-methoxyethyl) (MOE); [5mC] = 5-methylcytosine; d = 2'-deoxy (DNA)
The entries below come with measured platelet count values attached.

substance | platelet count
ISIS 449707: 3-8-3, 4-8-4, 2-10-2, 3-10-3 or 4-10-4 MOE microwalk gapmer (Table 46) (antisense e[5mC]*eA*e[5mC]*eA*dG*dT*dT*dT*d[5mC]*dT*dG*dG*e[5mC]*eA*eG*eG) | 383 ×100/μL
ISIS 449710: 3-8-3, 4-8-4, 2-10-2, 3-10-3 or 4-10-4 MOE microwalk gapmer (Table 46) (antisense e[5mC]*eA*e[5mC]*dA*dG*dT*dT*dT*d[5mC]*dT*dG*dG*d[5mC]*eA*eG*eG) | 411 ×100/μL
ISIS 449709: 3-8-3, 4-8-4, 2-10-2, 3-10-3 or 4-10-4 MOE microwalk gapmer (Table 46) (antisense eG*e[5mC]*eA*e[5mC]*dA*dG*dT*dT*dT*d[5mC]*dT*dG*dG*d[5mC]*eA*eG*eG*e[5mC]) | 456 ×100/μL
ISIS 416850: MOE gapmer, nucleobases 1275 to 1318 of SEQ ID NO: 1 (Table 8) (antisense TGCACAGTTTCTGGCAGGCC; MOE gapmer, wing and gap sizes not given here) | 462 ×100/μL
ISIS 445531: 5-8-5 or 6-8-6 MOE microwalk gapmer (Table 44) (antisense eG*eG*e[5mC]*eA*eT*dT*dG*dG*dT*dG*d[5mC]*dA*d[5mC]*eA*eG*eT*eT*eT) | 379 ×100/μL
ISIS 449711: 3-8-3, 4-8-4, 2-10-2, 3-10-3 or 4-10-4 MOE microwalk gapmer (Table 46) (antisense eA*e[5mC]*dA*dG*dT*dT*dT*d[5mC]*dT*dG*dG*d[5mC]*eA*eG) | 410 ×100/μL
ISIS 416858: MOE gapmer, nucleobases 1275 to 1318 of SEQ ID NO: 1 (Table 8) (antisense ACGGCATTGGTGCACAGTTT; MOE gapmer, wing and gap sizes not given here) | 369 ×100/μL
ISIS 445522: 5-8-5 or 6-8-6 MOE microwalk gapmer (Table 44) (antisense eG*e[5mC]*eA*e[5mC]*eA*dG*dT*dT*dT*d[5mC]*dT*dG*dG*e[5mC]*eA*eG*eG*e[5mC]) | 433 ×100/μL
ISIS 449708: 3-8-3, 4-8-4, 2-10-2, 3-10-3 or 4-10-4 MOE microwalk gapmer (Table 46) (antisense eA*e[5mC]*eA*dG*dT*dT*dT*d[5mC]*dT*dG*dG*e[5mC]*eA*eG) | 387 ×100/μL
